Experimental System: MAPK14 (human) (UniProt Q16539)
Sequence (Q16539 whole entry, looked up): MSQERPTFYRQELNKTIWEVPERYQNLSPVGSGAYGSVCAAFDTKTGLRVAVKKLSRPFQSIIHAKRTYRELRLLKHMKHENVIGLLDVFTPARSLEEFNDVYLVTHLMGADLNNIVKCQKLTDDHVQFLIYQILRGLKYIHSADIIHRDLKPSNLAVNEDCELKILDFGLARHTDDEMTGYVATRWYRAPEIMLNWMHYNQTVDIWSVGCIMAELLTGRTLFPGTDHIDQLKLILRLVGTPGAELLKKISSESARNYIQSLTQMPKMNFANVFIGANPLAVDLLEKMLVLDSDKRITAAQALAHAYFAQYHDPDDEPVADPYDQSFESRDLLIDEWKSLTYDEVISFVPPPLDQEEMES
Reported Conditions: pbmc
pIC50: −log10 of the molar value.
Measurement Type: pIC50

> print(dat)
                      smiles.representation              experimental.system  quantitative.result
1  OCCC#Cc1nc(-c2ccc(F)cc2)c(-c2ccncc2)n1CCCc1ccccc1  MAPK14 (human) (UniProt Q16539)                 8.52

----------
Experimental System: UniProt:Q16539
Reported Conditions: pbmc
Measurement Type: IC50 (nM)

> print(dat)
                      smiles.representation  measurement.type  quantitative.result
1  OCCC#Cc1nc(-c2ccc(F)cc2)c(-c2ccncc2)n1CCCc1ccccc1              IC50                    6
